# Test system: MS2 coat protein
# Assay: apparent KD of MS2 coat protein; designed switch direction (-1 OFF switch, 1 ON switch): -1; higher = weaker reporter binding
# Experimental conditions: Eterna round: R95; input ligand: microRNA oligo, concentration not stated
Assignment: determine reported apparent KD of MS2 coat protein for the given sequences.
Give bare numbers, in nM.

Known apparent KD of MS2 coat protein results, listed for orientation:
Entry sequence | Unit | apparent KD of MS2 coat protein
AAACCUGCCCAUGACCGCAAGCUUUUUGCUUGUCUUACCACAUGAGGAUCACCCAUGUGGCAUGGGCUCCUUAUAAA [Xemave] (puzzle: Sensor v3, turn-off variant 2) | nM | 11.8
CCGCAUAAGCAGGAUAUCGUAUCGGAGACGAUACGAGAAGGGUUAACAUGAGGAUCACCCAUGUUCCUUAACGG [Mat - Exclusion 6 - Eli Mod - D99] (puzzle: Exclusion 6) | nM | 14.1
UUUUAGUGAGGAUAUACAUUUUUUUAAUUAUUUAUAAUAUUACAUGAGGAUCACCCAUGUAGAAGGCACAUUUU [My Design] (puzzle: Exclusion 2) | nM | 27.4

// for each sequence in input: emit apparent KD of MS2 coat protein
1. UGGCAAGUAGGAUAUUGGGUGUGGGACAUGAGGAUCACCCAUGUGAUCACUCAAUCUCUCCGAGAAGGGCUAAGAA [Araes] (puzzle: Exclusion 5)
2. CUAGUCCGAGGAUAUAUUAAGUGAUACAUGAGGAUCACCCAUGUAAUUUAAUGGAAAUAAAUAGAAGGCGGACUAG [Mat - Exclusion 5 - JL mod - D52] (puzzle: Exclusion 5)
3. GGUUGGCGAGGAUAUACAUGAGGAUCACCCAUGUGAGAGAGAAAAGUGAGGAAGAAAAGUAGAAGGCGCUGACG [salish99_ex3_r3_003] (puzzle: Exclusion 3)
4. UUUAAUUUUUUUUUUUUACAAGCUUUUUGCUCGUCUUAUACAUGAGGAUCACCCAUGUGGGUGGAAGAUAAAUUAUC [JMF 12] (puzzle: Sensor v3, turn-off variant 2)
5. AGUACUAACACGAAAGUGUUAGUACAAUAAGCUUGUGAAACAUGAGGAUCACCCAUGUCCUCGUAAGCUCGUCUUAU [salish99_TOv2_r3_048] (puzzle: Sensor v3, turn-off variant 2)
6. AAUAACAGAGGAUAUACUAUUUUAUGUGUUUGUUGUUUUGAACAUGAGGAUCACCCAUGUAGAAGGCUGAUUAA [JMF 52] (puzzle: Exclusion 2)
7. AGUUGUUGUUUCCGUUCUUACAUGAGGAUCACCCAUGUUUCUUGUCGUGCUCGCGUUGCUCGUCUGACUACCUGUUG [salish99_TOv1_r3_067] (puzzle: Sensor v3, turn-off variant 1)

A:
[14, 46.2, 48, 75.1, 620, 34.3, 40.3]

Entry ACAAGCUUUUUGCUCGUCUUGUAGAAACGUGAGAGCGAGACAUGAGGAUCACCCAUGUAAAGGCAGUAGGUGGAGAU [JR_SV3TOV2_Sub026] (puzzle: Sensor v3, turn-off variant 2) , apparent KD of MS2 coat protein reported as 64.4
